Attribution: paper PMC6864627

- system: α-glucosidase (Saccharomyces cerevisiae)
- Construct: purchased Sigma Inc
- Sequence (P53341 whole entry): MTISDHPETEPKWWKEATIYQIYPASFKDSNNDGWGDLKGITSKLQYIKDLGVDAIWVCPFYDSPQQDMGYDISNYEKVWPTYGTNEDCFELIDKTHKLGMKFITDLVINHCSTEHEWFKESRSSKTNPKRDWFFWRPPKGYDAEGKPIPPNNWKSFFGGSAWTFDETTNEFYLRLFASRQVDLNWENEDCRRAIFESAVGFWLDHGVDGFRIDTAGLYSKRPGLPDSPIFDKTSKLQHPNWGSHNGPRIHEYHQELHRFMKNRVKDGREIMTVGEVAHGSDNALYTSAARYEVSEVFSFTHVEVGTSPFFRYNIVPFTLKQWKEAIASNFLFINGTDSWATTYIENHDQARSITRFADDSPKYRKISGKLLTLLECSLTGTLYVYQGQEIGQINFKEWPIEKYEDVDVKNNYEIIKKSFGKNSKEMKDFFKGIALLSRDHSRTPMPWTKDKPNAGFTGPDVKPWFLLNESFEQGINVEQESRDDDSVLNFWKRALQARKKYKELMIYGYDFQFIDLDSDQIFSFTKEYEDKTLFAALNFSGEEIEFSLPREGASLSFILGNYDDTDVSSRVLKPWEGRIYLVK
- assay.protocol: α-glucosidase inhibition assay
- Format: biochemical
- recorded.conditions: 50 mM phosphate buffer pH 6.8; 0.057 units enzyme; standard acarbose
quantity: IC50 (µM)
Give the quantity in µM, number only.

Exercise: Report its IC50 with α-glucosidase (Saccharomyces cerevisiae) as the test system: `Cc1ccc(C(CSc2nnc3c(n2)[nH]c2ccccc23)=NNC(=S)Nc2ccc(Cl)c(Cl)c2)cc1`
Solution: 4.8

Exercise: Report its IC50 with α-glucosidase (Saccharomyces cerevisiae) as the test system: `Cc1ccc(NC(=S)NN=C(CSc2nnc3c(n2)[nH]c2ccccc23)c2ccc(-c3ccccc3)cc2)cc1`
Solution: 12.8

Exercise: Report its IC50 with α-glucosidase (Saccharomyces cerevisiae) as the test system: `COc1ccc(C(CSc2nnc3c(n2)[nH]c2ccccc23)=NNC(=S)Nc2ccc(F)cc2)cc1`
Solution: 1.8

Exercise: Report its IC50 with α-glucosidase (Saccharomyces cerevisiae) as the test system: `O=[N+]([O-])c1cccc(C(CSc2nnc3c(n2)[nH]c2ccccc23)=NNC(=S)Nc2ccccc2Br)c1`
Solution: 26.8
